Entries and their measured inhibition follow.
System: Hepatitis C virus NS3 helicase
PROCEDURE TEXT: HCV NS3 helicase inhibitors, primary screen, biochemical, fluorescence polarization, LOPAC1280 library (AID 687035)
EXPERIMENTAL CONDITIONS: Purified HCV NS3 helicase, Cy5-dT15 ssDNA binding fluorescence polarization; stronger effect = higher value; concentration not given here
The figure you give is taken to be in %; do not add the unit.

inhibition recorded for this molecule, `O=C(N[C@@H](Cc1ccccc1)C(=O)CCl)OCc1ccccc1` , is 0

###

PROCEDURE TEXT: HDN33 neuroblastoma growth inhibition, cell-based, chromothripsis tumors, cisplatin or BGB combos (AID 1671450);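 note: cells exposed to compound for four days; 0% = vehicle DMSO and 100% = cell killing by high DMSO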
EXPERIMENTAL CONDITIONS: HDN33 neuroblastoma cells, single agent, at 5 µM, stronger effect = higher value
ASSAY ENDPOINT: inhibition (%)
The figure you give is taken to be in %; do not add the unit.

Examples from the recorded data:
Nc1ccc2cc3ccc(N)cc3nc2c1: 97.6
Nc1ncn([C@H]2C[C@H](O)[C@@H](CO)O2)c(=O)n1: 52.1
COc1c2ccoc2cc2oc(=O)ccc12: -13.4
COC1C(OC(N)=O)C(O)C(Oc2ccc3c(O)c(NC(=O)c4ccc(O)c(CC=C(C)C)c4)c(=O)oc3c2C)OC1(C)C (stereo not drawn): -35.9
CCOC(=O)Nc1ccc(NCc2ccc(F)cc2)nc1N: -28.3
C[C@@H](CN1CC(=O)NC(=O)C1)N1CC(=O)NC(=O)C1: 13.8

inhibition recorded for this compound, `O=c1cc[nH]c(=O)[nH]1` , is -52

inhibition recorded for this compound, `CN1CCN(c2c(F)cc3c(=O)c(C(=O)O)cn(CCF)c3c2F)CC1` , is 6.61

inhibition recorded for this compound, `CN1CCN(c2c(F)cc3c(=O)c(C(=O)O)cn4c3c2OCN4C)CC1` , is -9.4

inhibition recorded for this compound, `O=c1c(O)c(-c2ccc(O)c(O)c2)oc2cc(O)ccc12` , is -1.94

inhibition recorded for this compound, `O=c1[nH]c(=O)n([C@H]2C[C@H](O)[C@@H](CO)O2)cc1Br` , is 17

inhibition recorded for this compound, `N=c1ccn2c(n1)O[C@H]1[C@H](O)[C@@H](CO)O[C@H]12` , is 81.4

inhibition recorded for this compound, `O=c1[nH]c(=O)n([C@H]2C[C@H](O)[C@@H](CO)O2)cc1C(F)(F)F` , is 78.3

###

PROCEDURE TEXT: modifiers of HSF1 nuclear foci, imaging, Selleck Cancer Library (AID 1347162)
EXPERIMENTAL CONDITIONS: human cells, at 10 µM; stronger effect = lower value
Entries and their measured plate-normalised HSF1 focus index follow.
Respond with the number and no other words.

O=C(O[C@@H]1Cc2c(O)cc(O)cc2O[C@@H]1c1cc(O)c(O)c(O)c1)c1cc(O)c(O)c(O)c1: 1.03
FC(F)c1nc2ccccc2n1-c1nc(N2CCOCC2)nc(N2CCOCC2)n1: 0.994
CC1=C(/C=C/C(C)=C/C=C/C(C)=C/C(=O)Nc2ccc(O)cc2)C(C)(C)CCC1: 0.851
CC(C)n1c(/C=C/[C@@H](O)C[C@@H](O)CC(=O)O)c(-c2ccc(F)cc2)c2ccccc21: 1.13
CC(C)C[C@H](NC(=O)[C@H](Cc1ccccc1)NC(=O)c1cnccn1)B(O)O: 1.14
O=C(CCc1ccc(O)cc1)c1c(O)cc(O)cc1O: 1.13
CCCCCOC(=O)Nc1nc(=O)n([C@@H]2O[C@H](C)[C@@H](O)[C@H]2O)cc1F: 1.08
CCc1ccc(CCOc2ccc(CC3SC(=O)NC3=O)cc2)nc1 (stereo not given): 0.926
CNC(=O)c1cc(Oc2ccc(NC(=O)Nc3ccc(Cl)c(C(F)(F)F)c3)cc2)ccn1: 1.05

The record that follows has no plate-normalised HSF1 focus index shown yet.
plate-normalised HSF1 focus index recorded for this compound, `COc1cc2ncnc(Nc3ccc(F)c(Cl)c3)c2cc1OCCCN1CCOCC1` , is 0.813
